# targetOfAssay: PRMT5 (Homo sapiens)
# Construct: purchased Viva (custom protein)
# assayComment: PRMT5 biochemical IC50 assay with MTA as cofactor
# conditionParameters: PRMT5, MTA as cofactor; read-out: MTA IC50
recordedMetric: IC50

Determine reported IC50 for C[C@@H]1CC[C@H](c2cccnc2)N(C(=O)C(=O)Nc2cncc(C(N)=O)c2)C1 (single isomer, unassigned) ; test system: PRMT5 (Homo sapiens).
> 500 nM

Under PRMT5 (Homo sapiens), report IC50 for Cc1cc(NC(=O)C(=O)N2CCCC[C@H]2C2CCCC2)cnc1N (single isomer, unassigned)
< 50 nM

Jot down IC50 (PRMT5 (Homo sapiens)) of C[C@H]1CC[C@H]2CCCC[C@H]2N1C(=O)C(=O)Nc1cncc(C(N)=O)c1 (single isomer, unassigned) .
< 50 nM

Provide measured IC50 on PRMT5 (Homo sapiens) for Cc1cc(NC(=O)C(=O)N2C[C@H](C)CC[C@H]2c2ccc(-c3cn[nH]c3)cc2)cnc1N (racemic) [Compound 525] please.
50 to 500 nM

Given COc1ncc(NC(=O)C(=O)N2C[C@@H](C)CC[C@@H]2c2cc3cn[nH]c3s2)cc1C(N)=O (single isomer, unassigned) , report its IC50 on PRMT5 (Homo sapiens).
< 50 nM

For PRMT5 (Homo sapiens), give IC50 of the listed compound: CCc1cc(NC(=O)C(=O)N2C[C@@H](C)C(F)(F)C[C@@H]2c2ccc(F)c(F)c2)cnc1N (single isomer, unassigned)
< 50 nM

* * *

Kindly supply the reported pIC50 values for the records listed here.
# targetOfAssay: PRMT5 (Homo sapiens, UniProt O14744)
# Construct: purchased Viva (custom protein)
# Sequence (O14744 whole entry): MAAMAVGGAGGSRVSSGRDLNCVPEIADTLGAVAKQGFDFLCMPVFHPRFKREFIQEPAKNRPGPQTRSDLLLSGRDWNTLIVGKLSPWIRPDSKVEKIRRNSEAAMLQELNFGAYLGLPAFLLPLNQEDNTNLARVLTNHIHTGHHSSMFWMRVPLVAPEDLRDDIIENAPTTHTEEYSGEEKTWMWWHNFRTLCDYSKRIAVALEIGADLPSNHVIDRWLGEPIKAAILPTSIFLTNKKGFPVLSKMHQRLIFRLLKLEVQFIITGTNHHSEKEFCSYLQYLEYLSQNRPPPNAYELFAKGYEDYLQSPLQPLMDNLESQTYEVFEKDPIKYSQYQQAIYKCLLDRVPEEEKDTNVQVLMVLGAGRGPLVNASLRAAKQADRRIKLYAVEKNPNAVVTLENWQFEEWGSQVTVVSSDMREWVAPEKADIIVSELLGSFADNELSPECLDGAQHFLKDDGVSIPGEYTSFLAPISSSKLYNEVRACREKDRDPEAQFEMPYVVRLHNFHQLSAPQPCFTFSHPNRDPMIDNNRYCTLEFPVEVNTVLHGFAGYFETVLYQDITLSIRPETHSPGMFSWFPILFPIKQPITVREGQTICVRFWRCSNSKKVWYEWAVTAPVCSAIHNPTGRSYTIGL
# Sequence (Q9BQA1 whole entry partner): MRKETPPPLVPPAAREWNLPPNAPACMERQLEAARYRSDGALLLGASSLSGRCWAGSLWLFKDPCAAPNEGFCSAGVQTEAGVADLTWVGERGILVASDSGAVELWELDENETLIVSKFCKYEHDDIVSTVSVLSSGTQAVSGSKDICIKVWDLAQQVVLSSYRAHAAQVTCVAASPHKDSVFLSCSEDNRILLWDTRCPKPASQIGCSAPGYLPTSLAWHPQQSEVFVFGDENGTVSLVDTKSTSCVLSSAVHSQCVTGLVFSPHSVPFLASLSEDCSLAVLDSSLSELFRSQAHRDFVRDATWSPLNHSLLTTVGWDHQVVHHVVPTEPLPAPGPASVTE
# assayComment: PRMT5 biochemical IC50 assay with SAM as cofactor
# conditionParameters: PRMT5, SAM as cofactor; read-out: SAM IC50
pIC50: −log10 of the molar value.

Given Cc1cc(NC(=O)C(=O)N2CCCCC2c2ccccc2)cnc1N (racemic) , respond with its pIC50.
6.30 to 7.30

For the compound COc1ncc(NC(=O)C(=O)N2C[C@@H](C)CC[C@@H]2c2ccc3nn([C@H]4CCN(C)C4)cc3c2)cc1C(N)=O (racemic) , report pIC50.
6.30 to 7.30

Using known records, supply pIC50 for CCc1cc(NC(=O)C(=O)N2C[C@@H](C)CC[C@@H]2c2ccc3sc(N)nc3c2)cnc1N (single isomer, unassigned)
6.30 to 7.30

Query pIC50 for CCc1ccc([C@H]2CC[C@H](C)CN2C(=O)C(=O)Nc2cnc(N)c(C)c2)cn1 (single isomer, unassigned)
< 6.30

Read off the recorded pIC50 for Cc1cc(NC(=O)C(=O)N2C[C@@H](C)CC[C@@H]2c2ccc(NS(C)(=O)=O)nc2)cnc1N (single isomer, unassigned)
< 6.30

Write down pIC50 measured for item Cc1cc(NC(=O)C(=O)N2C[C@@H](C)CC[C@@H]2c2cc(Cl)cc(Cl)c2)cnc1N (single isomer, unassigned)
< 6.30

* * *

# targetOfAssay: PRMT5 (Homo sapiens, UniProt O14744)
# Construct: purchased Viva (custom protein)
# assayComment: PRMT5 biochemical IC50 assay with SAM as cofactor
# conditionParameters: SAM IC50, PRMT5, SAM as cofactor
pIC50: −log10 of the molar value.
Record form. Attribute: pIC50. Fill in for each entry.

For the compound CCc1cc(NC(=O)C(=O)N2C[C@@H](C)CC[C@@H]2c2ccc3sc(C4(O)CCN(C)CC4)nc3c2)cnc1N , give its measured pIC50 value.
> 7.30

Please give the documented pIC50 of CCc1cc(NC(=O)C(=O)N2C[C@@H](C)CC[C@@H]2c2ccc3sc(C4(OC)CCN(C)CC4)nc3c2)cnc1N
> 7.30

// fetch pIC50 given entry CCc1cc(NC(=O)C(=O)N2C[C@@H](C)CC[C@@H]2c2ccc3sc(C4(C)CCN(C)CC4)nc3c2)cnc1N
> 7.30
